- systemUnderTest: mMincle-Ig (Mus musculus)
- Construct: using soluble Mincle-Ig fusion-proteins; made in house
- Sequence (Q9R0Q8 46-214 limits assumed): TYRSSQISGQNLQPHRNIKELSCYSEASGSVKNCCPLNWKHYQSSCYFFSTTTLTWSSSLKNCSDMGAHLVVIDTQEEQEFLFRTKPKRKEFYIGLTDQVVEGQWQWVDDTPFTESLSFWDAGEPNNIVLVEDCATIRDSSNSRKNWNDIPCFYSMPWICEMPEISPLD
- assayInfo: In vitro Mincle binding assay (ELISA) with mMincle-Ig fusion protein
- Design: species or system murine
- conditionInfo: plate-coated ligand 0.1 nmol/well
- Protocol: Preparation of ligand-coated plates: Brartemicin analogues 9a-9i, TDM (Carbosynth, Sigma Aldrich), and TDB^14 were dissolved in CHCl3:MeOH (2:1, 1 mM), diluted in isopropanol ([…]) and added to 96-well plates (20 μL/well). The solvents were evaporated and the coated plates were used immediately. In vitro Mincle binding assay: The preparation of mMincle- and hMincle-Ig fusion proteins have been previously described. […]
attributeMeasured: binding to mMincle-Ig (ELISA, OD at 450 nm)

>>> assayresult("CCCCCCCOc1cc(C)c(C(=O)OCC2O[C@H](O[C@H]3OC(COC(=O)c4c(C)cc(OCCCCCCC)cc4O)[C@@H](O)C(O)C3O)C(O)C(O)[C@@H]2O)c(O)c1 (stereo partly drawn)")
"good binding"
>>> assayresult("CCCCCCCOc1ccc(C(=O)OCC2O[C@H](O[C@H]3OC(COC(=O)c4ccc(OCCCCCCC)cc4O)[C@@H](O)C(O)C3O)C(O)C(O)[C@@H]2O)c(O)c1 (stereo partly drawn)")
"good binding"

----------
- systemUnderTest: hMincle-Ig (Homo sapiens, UniProt Q9ULY5)
- Construct: using soluble Mincle-Ig fusion-proteins; made in house
- Sequence (Q9ULY5 41-219 limits assumed): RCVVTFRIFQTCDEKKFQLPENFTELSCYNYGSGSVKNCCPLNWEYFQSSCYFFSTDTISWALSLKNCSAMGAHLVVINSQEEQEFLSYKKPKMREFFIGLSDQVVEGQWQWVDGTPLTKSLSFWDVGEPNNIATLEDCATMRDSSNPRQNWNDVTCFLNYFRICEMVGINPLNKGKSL
- assayInfo: In vitro Mincle binding assay (ELISA) with hMincle-Ig fusion protein
- conditionInfo: plate-coated ligand 0.1 nmol/well
attributeMeasured: binding to hMincle-Ig (ELISA, OD at 450 nm)

>>> assayresult("CCCCCCCOc1ccc(C(=O)OCC2O[C@H](O[C@H]3OC(COC(=O)c4ccc(OCCCCCCC)cc4O)[C@@H](O)C(O)C3O)C(O)C(O)[C@@H]2O)c(O)c1 (stereo partly drawn)")
"good binding"
>>> assayresult("CCCCCCCOc1cc(C)c(C(=O)OCC2O[C@H](O[C@H]3OC(COC(=O)c4c(C)cc(OCCCCCCC)cc4O)[C@@H](O)C(O)C3O)C(O)C(O)[C@@H]2O)c(O)c1 (stereo partly drawn)")
"good binding"

----------
- Tested on: wild-type GM-CSF BMDMs
- assayInfo: Cytokine/chemokine production by wild-type GM-CSF BMDMs on ligand-coated plates
- Format: cell-based, C57BL/6 mice
- conditionInfo: wild-type BMDMs, coated plates 0.1 or 1 nmol/well, 24 hours, ELISA
attributeMeasured: MIP-2 production

>>> assayresult("CCCCCCCCCCCCCCCCCCCCCC(=O)OC[C@H]1O[C@H](O[C@H]2O[C@H](COC(=O)CCCCCCCCCCCCCCCCCCCCC)[C@@H](O)[C@H](O)[C@H]2O)[C@H](O)[C@@H](O)[C@@H]1O [TDB, trehalose dibehenate, reference compound]")
"significant production"
>>> assayresult("CCCCCCCOc1cc(C)c(C(=O)OCC2O[C@H](O[C@H]3OC(COC(=O)c4c(C)cc(OCCCCCCC)cc4O)[C@@H](O)C(O)C3O)C(O)C(O)[C@@H]2O)c(O)c1 (stereo partly shown) [9h]")
"significant production"

----------
- Tested on: wild-type GM-CSF BMDMs
- assayInfo: Cytokine/chemokine production by wild-type GM-CSF BMDMs on ligand-coated plates
- Assay type: cell-based, C57BL/6 mice
- conditionInfo: wild-type BMDMs, coated plates 0.1 or 1 nmol/well, 24 hours, ELISA
- Experimental: Preparation of ligand-coated plates: Brartemicin analogues 9a-9i, TDM (Carbosynth, Sigma Aldrich), and TDB^14 were dissolved in CHCl3:MeOH (2:1, 1 mM), diluted in isopropanol ([…]) and added to 96-well plates (20 μL/well). The solvents were evaporated and the coated plates were used immediately. […] Cytokine analysis: IL-1β, IFN-γ, IL-6, TNF-α (BD Biosciences), IL-17, and MIP-2 (R&D) levels were determined via sandwich ELISA according to the manufacturer's instructions. […]
attributeMeasured: TNF production

>>> assayresult("CCCCCCCCCCCCCCCCCCCCCC(=O)OC[C@H]1O[C@H](O[C@H]2O[C@H](COC(=O)CCCCCCCCCCCCCCCCCCCCC)[C@@H](O)[C@H](O)[C@H]2O)[C@H](O)[C@@H](O)[C@@H]1O [TDB, trehalose dibehenate, reference compound]")
"significant production"
>>> assayresult("CCCCCCCOc1cc(C)c(C(=O)OCC2O[C@H](O[C@H]3OC(COC(=O)c4c(C)cc(OCCCCCCC)cc4O)[C@@H](O)C(O)C3O)C(O)C(O)[C@@H]2O)c(O)c1 (stereo partly drawn) [9h]")
"significant production"

----------
- Test system: wild-type GM-CSF BMDMs
- assayInfo: Cytokine/chemokine production by wild-type GM-CSF BMDMs on ligand-coated plates
- Assay type: cell-based, C57BL/6 mice
- conditionInfo: wild-type BMDMs, coated plates 0.1 or 1 nmol/well, 24 hours, ELISA
attributeMeasured: IL-1β production

>>> assayresult("CCCCCCCOc1cc(C)c(C(=O)OCC2O[C@H](O[C@H]3OC(COC(=O)c4c(C)cc(OCCCCCCC)cc4O)[C@@H](O)C(O)C3O)C(O)C(O)[C@@H]2O)c(O)c1 (stereo partly drawn) [9h]")
"significant production"
>>> assayresult("CCCCCCCCCCCCCCCCCCCCCC(=O)OC[C@H]1O[C@H](O[C@H]2O[C@H](COC(=O)CCCCCCCCCCCCCCCCCCCCC)[C@@H](O)[C@H](O)[C@H]2O)[C@H](O)[C@@H](O)[C@@H]1O [TDB, trehalose dibehenate, reference compound]")
"significant production"
